// data source = ChEMBL document CHEMBL4732146

# System: PANC-1
# assay protocol: Cytotoxicity against human PANC-1 cells assessed as reduction in cell viability measured after 48 hrs in presence of CuCl2 by MTT assay
# Assay type: functional, cell-based
# protocol conditions: PANC-1, 48 h
parameter: IC50 (nM)

>>> df
                              sample_smiles  unit_string  quantitative_readout
0  CC1(C)OB(c2ccc(COc3cccc4ccc(C(=O)NCCCOc5no[n+]([O-])c5S(=O)(=O)c5ccccc5)nc34)cc2)OC1(C)C           nM                  4890
1                           Oc1cccc2cccnc12           nM                  7430
2  O=C(c1ccc2cccc(OCc3ccc(B(O)O)cc3)c2n1)N1CCC(Oc2no[n+]([O-])c2S(=O)(=O)c2ccccc2)CC1           nM                  2690
3  CC1(C)OB(c2ccc(COc3cccc4ccc(C(=O)N5CCC(Oc6no[n+]([O-])c6S(=O)(=O)c6ccccc6)CC5)nc34)cc2)OC1(C)C           nM                  3470
4  O=C(NCCCOc1no[n+]([O-])c1S(=O)(=O)c1ccccc1)c1ccc2cccc(O)c2n1           nM                   860
5  O=C(c1ccc2cccc(O)c2n1)N1CCC(Oc2no[n+]([O-])c2S(=O)(=O)c2ccccc2)CC1           nM                  1320
6  O=C(NCCCOc1no[n+]([O-])c1S(=O)(=O)c1ccccc1)c1ccc2cccc(OCc3ccc(B(O)O)cc3)c2n1           nM                  1690

###

Collected IC50 values appear next to each entry.
# System: PC-3
# assay protocol: Cytotoxicity against human PC-3 cells assessed as reduction in cell viability measured after 48 hrs by MTT assay
# Type: functional, cell-based
# protocol conditions: PC-3, 48 h
parameter: IC50 (µM)

>>> print(df.to_string())
                              sample_smiles  quantitative_readout
0                           Oc1cccc2cccnc12                    32
1  O=C(NCCCOc1no[n+]([O-])c1S(=O)(=O)c1ccccc1)c1ccc2cccc(O)c2n1                  11.7
2  O=C(c1ccc2cccc(O)c2n1)N1CCC(Oc2no[n+]([O-])c2S(=O)(=O)c2ccccc2)CC1                  10.4

###

# System: HeLa
# assay protocol: Cytotoxicity against human HeLa cells assessed as reduction in cell viability measured after 48 hrs in presence of FeCl3 by MTT assay
# Type: functional, cell-based
parameter: IC50 (µM)

In [3]: df
Out[3]:
                              sample_smiles  tested_system  qualifier  quantitative_readout
0  O=C(NCCCOc1no[n+]([O-])c1S(=O)(=O)c1ccccc1)c1ccc2cccc(O)c2n1           HeLa          =                  33.2
1  O=C(c1ccc2cccc(O)c2n1)N1CCC(Oc2no[n+]([O-])c2S(=O)(=O)c2ccccc2)CC1           HeLa          =                  37.9
2                           Oc1cccc2cccnc12           HeLa          >                    50

###

# Tested on: HepG2
# assay protocol: Cytotoxicity against human HepG2 cells assessed as reduction in cell viability measured after 48 hrs by MTT assay
# Format: functional, cell-based
# protocol conditions: HepG2, 48 h
parameter: IC50 (µM)

                              sample_smiles  parameter  qualifier  quantitative_readout
0  O=C(c1ccc2cccc(O)c2n1)N1CCC(Oc2no[n+]([O-])c2S(=O)(=O)c2ccccc2)CC1       IC50          =                  14.6
1  O=C(NCCCOc1no[n+]([O-])c1S(=O)(=O)c1ccccc1)c1ccc2cccc(O)c2n1       IC50          =                  17.9
2                           Oc1cccc2cccnc12       IC50          >                    50

###

# System: PANC-1
# assay protocol: Cytotoxicity against human PANC-1 cells assessed as reduction in cell viability measured after 48 hrs by MTT assay
# Type: functional, cell-based
# protocol conditions: PANC-1, 48 h
The label Condition met is reserved for IC50 strictly under 10 µM; Condition not met covers values equal to or above it.

In [3]: df
Out[3]:
                                   compound              class
0  O=C(NCCCOc1no[n+]([O-])c1S(=O)(=O)c1ccccc1)c1ccc2cccc(O)c2n1      Condition met
1  O=C(NCCCOc1no[n+]([O-])c1S(=O)(=O)c1ccccc1)c1ccc2cccc(OCc3ccc(B(O)O)cc3)c2n1  Condition not met
2  O=C(c1ccc2cccc(OCc3ccc(B(O)O)cc3)c2n1)N1CCC(Oc2no[n+]([O-])c2S(=O)(=O)c2ccccc2)CC1  Condition not met
3  CC1(C)OB(c2ccc(COc3cccc4ccc(C(=O)N5CCC(Oc6no[n+]([O-])c6S(=O)(=O)c6ccccc6)CC5)nc34)cc2)OC1(C)C  Condition not met
4            Oc1cccc2cccnc12 [OXYQUINOLINE]  Condition not met
5  O=C(c1ccc2cccc(O)c2n1)N1CCC(Oc2no[n+]([O-])c2S(=O)(=O)c2ccccc2)CC1      Condition met
6  CC1(C)OB(c2ccc(COc3cccc4ccc(C(=O)NCCCOc5no[n+]([O-])c5S(=O)(=O)c5ccccc5)nc34)cc2)OC1(C)C  Condition not met

###

Reported values of IC50 for individual entries
# System: A549
# assay protocol: Cytotoxicity against human A549 cells assessed as reduction in cell viability measured after 48 hrs in presence of CuCl2 by MTT assay
# Assay type: functional, cell-based
# protocol conditions: A549, 48 h
parameter: IC50 (µM)

                              sample_smiles  quantitative_readout
0                           Oc1cccc2cccnc12                  6.58
1  O=C(c1ccc2cccc(O)c2n1)N1CCC(Oc2no[n+]([O-])c2S(=O)(=O)c2ccccc2)CC1                  2.16
2  O=C(NCCCOc1no[n+]([O-])c1S(=O)(=O)c1ccccc1)c1ccc2cccc(O)c2n1                  4.68

###

# assay protocol: Cytotoxicity against human H6C7 cells assessed as reduction in cell viability measured after 48 hrs by MTT assay
# Format: cell-based
# protocol conditions: H6C7, 48 h
pIC50: −log10 of the molar value.
parameter: pIC50

>>> df
                              sample_smiles  qualifier  quantitative_readout
0  CC1(C)OB(c2ccc(COc3cccc4ccc(C(=O)N5CCC(Oc6no[n+]([O-])c6S(=O)(=O)c6ccccc6)CC5)nc34)cc2)OC1(C)C          =                  4.47
1                           Oc1cccc2cccnc12          =                  4.70
2  O=C(c1ccc2cccc(OCc3ccc(B(O)O)cc3)c2n1)N1CCC(Oc2no[n+]([O-])c2S(=O)(=O)c2ccccc2)CC1          <                  4.30
3  O=C(NCCCOc1no[n+]([O-])c1S(=O)(=O)c1ccccc1)c1ccc2cccc(O)c2n1          =                  5.04
4  O=C(NCCCOc1no[n+]([O-])c1S(=O)(=O)c1ccccc1)c1ccc2cccc(OCc3ccc(B(O)O)cc3)c2n1          <                  4.30
5  O=C(c1ccc2cccc(O)c2n1)N1CCC(Oc2no[n+]([O-])c2S(=O)(=O)c2ccccc2)CC1          =                  4.88
6  CC1(C)OB(c2ccc(COc3cccc4ccc(C(=O)NCCCOc5no[n+]([O-])c5S(=O)(=O)c5ccccc5)nc34)cc2)OC1(C)C          =                  4.39

###

Listed next: entries and their corresponding IC50.
# System: HCT-116
# assay protocol: Cytotoxicity against human HCT-116 cells assessed as reduction in cell viability measured after 48 hrs in presence of CuCl2 by MTT assay
# Assay type: functional, cell-based
# protocol conditions: HCT-116, 48 h
parameter: IC50 (µM)

In [3]: df
Out[3]:
                              sample_smiles  quantitative_readout
0                           Oc1cccc2cccnc12                  7.25
1  O=C(NCCCOc1no[n+]([O-])c1S(=O)(=O)c1ccccc1)c1ccc2cccc(O)c2n1                   5.2
2  O=C(c1ccc2cccc(O)c2n1)N1CCC(Oc2no[n+]([O-])c2S(=O)(=O)c2ccccc2)CC1                  3.29
